Source listed as patent US11267802B2.

assay-details: Pharmacokinetic experiments of tumor model (plasma and tumor tissue, H1975 xenograft mice)
Type: in vivo, Balb/C nude mice
measurement-setup: Balb/C nude, mouse, oral 30 mg/kg, plasma

[
  {
    "molecular-string": "C=CC(=O)Nc1cc(Nc2nccc(-n3c(=O)n(C(C)C)c4cc(F)ccc43)n2)c(OC)cc1N(C)CCN(C)C",
    "Cmax, µg/mL": 1.72
  }
]

====

Below is a list of entries, each paired with its recorded pIC50 value.
System: LOVO
assay-details: Inhibition assay on tumor cell proliferation (CellTiter-Glo), LOVO
Format: cell-based, Human
measurement-setup: Homo sapiens; LOVO (wild-type EGFR), 72 hours, 10% bovine serum
pIC50: −log10 of the molar value.

[
  {
    "molecular-string": "COc1cc(N(C)CCN(C)C)c(NC(=O)/C=C/CN2CCCCC2)cc1Nc1nccc(-n2ccc3ccccc32)n1",
    "pIC50": "6.00 to 7.00"
  },
  {
    "molecular-string": "C=CC(=O)Nc1cc(Nc2nccc(-n3ccc4c(F)cccc43)n2)c(OC)cc1N(C)CCN(C)C",
    "pIC50": "< 6.00"
  },
  {
    "molecular-string": "C=CC(=O)Nc1cc(Nc2nccc(-n3ccc4cc(C#N)ccc43)n2)c(OC)cc1N(C)CCN(C)C",
    "pIC50": "< 6.00"
  },
  {
    "molecular-string": "C=CC(=O)Nc1cc(Nc2nccc(-n3c(=O)n(C)c4cc(Cl)ccc43)n2)c(OC)cc1N(C)CCN(C)C",
    "pIC50": "< 6.00"
  }
]

====

assay-details: Pharmacokinetic experiments of tumor model (plasma and tumor tissue, H1975 xenograft mice)
Assay type: in vivo, Balb/C nude mice
measurement-setup: Balb/C nude, mouse, oral 30 mg/kg, tumor tissue
readout: half-life (h)

[
  {
    "compound": "C=CC(=O)Nc1cc(Nc2nccc(-n3c(=O)n(C(C)C)c4cc(F)ccc43)n2)c(OC)cc1N(C)CCN(C)C [Compound 91]",
    "quantitative-result": 5.5
  }
]

====

System: H358
assay-details: Inhibition assay on tumor cell proliferation (CellTiter-Glo), H358
Format: cell-based, Human
measurement-setup: Homo sapiens, NCI-H358; H358 (wild-type EGFR), 72 hours, 10% bovine serum
pIC50: −log10 of the molar value.

[
  {
    "molecular-string": "C=CC(=O)Nc1cc(Nc2nccc(-n3c(=O)n(CC4CC4)c4ccccc43)n2)c(OC)cc1N(C)CCN(C)C",
    "measurement-target": "H358",
    "pIC50": "< 6.00"
  },
  {
    "molecular-string": "C=CC(=O)Nc1cc(Nc2nccc(-n3c(=O)n(CC=C(C)C)c4ccccc43)n2)c(OC)cc1N(C)CCN(C)C",
    "measurement-target": "H358",
    "pIC50": "6.00 to 7.00"
  },
  {
    "molecular-string": "C=CC(=O)Nc1cc(Nc2ncc(N(C)C)c(-n3c(=O)n(C(C)C)c4ccccc43)n2)c(OC)cc1N(C)CCN(C)C",
    "measurement-target": "H358",
    "pIC50": "< 6.00"
  },
  {
    "molecular-string": "C=CC(=O)Nc1cc(Nc2nccc(-n3ccc4cc(CO)ccc43)n2)c(OC)cc1N(C)CCN(C)C",
    "measurement-target": "H358",
    "pIC50": "6.00 to 7.00"
  },
  {
    "molecular-string": "C=CC(=O)Nc1cc(Nc2nccc(-n3ccc4cc(OC)ccc43)n2)c(OC)cc1N(C)CCN(C)C",
    "measurement-target": "H358",
    "pIC50": "6.00 to 7.00"
  },
  {
    "molecular-string": "COc1cc(N(C)CCN(C)C)c(NC(=O)/C=C/CN2CCCCC2)cc1Nc1nccc(-n2ccc3ccccc32)n1",
    "measurement-target": "H358",
    "pIC50": "6.00 to 7.00"
  },
  {
    "molecular-string": "C=CC(=O)Nc1cc(Nc2nccc(-n3c(=O)n(C)c4cc(F)ccc43)n2)c(OC)cc1N(C)CCN(C)C",
    "measurement-target": "H358",
    "pIC50": "6.00 to 7.00"
  }
]

====

assay-details: Pharmacokinetics in beagles after oral administration
Format: in vivo
measurement-setup: male, beagle, dog, 5 mg/kg, plasma, read-out: AUC0-24
Below is a list of entries, each paired with its recorded AUC(0-t) value.
readout: AUC(0-t) (ng·h/mL)

[
  {
    "molecular-string": "C=CC(=O)Nc1cc(Nc2nccc(-n3c(=O)n(C(C)C)c4cc(F)ccc43)n2)c(OC)cc1N(C)CCN(C)C",
    "quantitative-result": 786
  },
  {
    "molecular-string": "C=CC(=O)Nc1cc(Nc2nccc(-n3c(=O)n(C)c4cc(F)ccc43)n2)c(OC)cc1N(C)CCN(C)C",
    "quantitative-result": 1420
  }
]

====

Below is a list of entries, each paired with its recorded melting point value.
readout: melting point

[
  {
    "molecule": "C=CC(=O)Nc1cc(Nc2nccc(-n3ccc4ccccc43)n2)c(OC)cc1N1CCN(C)CC1 [Compound 84]",
    "result": "204 to 205 °C"
  },
  {
    "molecule": "C=CC(=O)Nc1cc(Nc2ncc(N(C)C)c(-n3c(=O)n(C(C)C)c4ccccc43)n2)c(OC)cc1N(C)CCN(C)C [Compound 135]",
    "result": "114.6 to 116.2 °C"
  },
  {
    "molecule": "C=CC(=O)Nc1cc(Nc2nccc(-n3ccc4ccccc43)n2)c(OC)cc1N(C)CCN1CCCC1 [Compound 80]",
    "result": "151 to 153 °C"
  },
  {
    "molecule": "C=CC(=O)Nc1cc(Nc2nccc(-n3ccc4ccccc43)n2)c(OC)cc1N1CC[C@H](N(C)C)C1 [Compound 78]",
    "result": "161 to 162 °C"
  },
  {
    "molecule": "C=CC(=O)Nc1cc(Nc2nccc(-n3c(=O)n(C4CC4)c4cc(C#N)ccc43)n2)c(OC)cc1N(C)CCN(C)C [Compound 101]",
    "result": "177 to 179 °C"
  },
  {
    "molecule": "COc1cc(N(C)CCN(C)C)c(NC(=O)/C=C/CN(C)C)cc1Nc1nccc(-n2ccc3ccccc32)n1 [Compound 69]",
    "result": "116.2 to 118.1 °C"
  },
  {
    "molecule": "CCC#CC(=O)Nc1cc(Nc2nccc(-n3ccc4ccccc43)n2)c(OC)cc1N(C)CCN(C)C [Compound 74]",
    "result": "149.4 to 151.7 °C"
  },
  {
    "molecule": "C=CC(=O)Nc1cc(Nc2nccc(-n3ccc4ccccc43)n2)c(OC)cc1N(C)CCN1CCCCC1 [Compound 81]",
    "result": "131 to 136 °C"
  },
  {
    "molecule": "C=CC(=O)Nc1cc(Nc2ncc(NC)c(-n3ccc4ccccc43)n2)c(OC)cc1N(C)CCN(C)C [Compound 11]",
    "result": "154 to 156 °C"
  },
  {
    "molecule": "CC/C=C/C(=O)Nc1cc(Nc2nccc(-n3ccc4ccccc43)n2)c(OC)cc1N(C)CCN(C)C [Compound 67]",
    "result": "124.3 to 126.2 °C"
  },
  {
    "molecule": "C=CC(=O)Nc1cc(Nc2nccc(-n3c(=O)n(C(C)C)c4cc(F)ccc43)n2)c(OC)cc1N(C)CCN(C)C [Compound 91]",
    "result": "225 to 227 °C"
  },
  {
    "molecule": "C=C(C)C(=O)Nc1cc(Nc2nccc(-n3ccc4ccccc43)n2)c(OC)cc1N(C)CCN(C)C [Compound 68]",
    "result": "145.7 to 147.1 °C"
  },
  {
    "molecule": "C=CC(=O)Nc1cc(Nc2nccc(-n3c(=O)n(C)c4ccccc43)n2)c(C)cc1N(C)CCN(C)C [Compound 118]",
    "result": "208 to 210 °C"
  }
]

====

measurement-target: EGFR T790M/L858R (Homo sapiens, UniProt P00533, L858R/T790M)
Sequence (P00533 25-1210 T790M/L858R): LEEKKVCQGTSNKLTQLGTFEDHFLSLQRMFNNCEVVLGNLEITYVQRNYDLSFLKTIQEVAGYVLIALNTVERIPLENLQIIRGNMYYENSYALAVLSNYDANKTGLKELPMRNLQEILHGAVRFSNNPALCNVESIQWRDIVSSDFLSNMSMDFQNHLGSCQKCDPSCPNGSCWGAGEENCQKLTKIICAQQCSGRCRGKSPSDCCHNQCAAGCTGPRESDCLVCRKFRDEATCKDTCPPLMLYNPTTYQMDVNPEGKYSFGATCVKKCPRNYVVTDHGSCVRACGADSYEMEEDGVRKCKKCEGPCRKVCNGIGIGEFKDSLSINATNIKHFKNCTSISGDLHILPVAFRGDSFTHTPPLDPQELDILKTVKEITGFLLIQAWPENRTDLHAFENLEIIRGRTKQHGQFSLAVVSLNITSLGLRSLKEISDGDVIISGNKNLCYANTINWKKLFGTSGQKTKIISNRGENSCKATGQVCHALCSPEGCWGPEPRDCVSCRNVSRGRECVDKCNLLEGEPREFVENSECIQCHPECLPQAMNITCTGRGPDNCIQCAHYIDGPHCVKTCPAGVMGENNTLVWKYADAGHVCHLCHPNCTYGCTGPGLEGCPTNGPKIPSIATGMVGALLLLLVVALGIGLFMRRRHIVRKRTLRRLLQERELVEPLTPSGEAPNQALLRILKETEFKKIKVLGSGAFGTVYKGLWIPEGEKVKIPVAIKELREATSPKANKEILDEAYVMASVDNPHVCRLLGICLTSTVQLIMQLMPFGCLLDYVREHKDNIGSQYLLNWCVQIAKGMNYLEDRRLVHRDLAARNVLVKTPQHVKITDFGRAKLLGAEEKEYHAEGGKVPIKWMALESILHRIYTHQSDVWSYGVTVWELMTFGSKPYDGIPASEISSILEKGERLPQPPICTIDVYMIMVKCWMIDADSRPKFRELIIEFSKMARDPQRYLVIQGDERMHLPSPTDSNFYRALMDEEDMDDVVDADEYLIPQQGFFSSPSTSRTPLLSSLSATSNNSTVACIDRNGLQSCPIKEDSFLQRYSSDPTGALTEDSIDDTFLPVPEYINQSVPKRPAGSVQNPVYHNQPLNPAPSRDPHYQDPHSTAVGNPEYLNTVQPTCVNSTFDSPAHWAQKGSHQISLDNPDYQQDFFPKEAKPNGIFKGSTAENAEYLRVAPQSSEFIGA
assay-details: Mutant EGFR T790M/L858R activity inhibition assay (Caliper mobility shift)
measurement-setup: read-out: enzyme activity inhibition (IC50) EGFR T790M/L858R
Method: The assay procedure is as follows. […] 5 μl of the compound dissolved in 10% DMSO at a concentration of 5-fold of the final reaction concentration was added to a 384 well plate. 5 μl of 10% DMSO was used in a no-compound control well, while 5 μl of a kinase buffer was used in a no-enzyme activity control well. […] The conversion rate was read on Caliper EZ Reader II (Caliper Life Sciences). The conversion rate was then converted to inhibitory rate. […]
pIC50: −log10 of the molar value.

[
  {
    "molecular-string": "COc1cc(N(C)CCN(C)C)c(NC(=O)/C=C/CN(C)C)cc1Nc1nccc(-n2ccc3ccccc32)n1",
    "pIC50": "> 9.00"
  },
  {
    "molecular-string": "C=CC(=O)Nc1cc(Nc2nccc(-n3c(=O)n(CC4CC4)c4ccccc43)n2)c(OC)cc1N(C)CCN(C)C",
    "pIC50": "> 9.00"
  },
  {
    "molecular-string": "C=CC(=O)Nc1cc(Nc2ncc(C(F)(F)F)c(-n3ccc4ccccc43)n2)c(OC)cc1N(C)CCN(C)C",
    "pIC50": "8.00 to 9.00"
  },
  {
    "molecular-string": "C=CC(=O)Nc1cc(Nc2nccc(-n3ccc4ccc(F)cc43)n2)c(OC)cc1N(C)CCN(C)C",
    "pIC50": "> 9.00"
  },
  {
    "molecular-string": "C=CC(=O)Nc1cc(Nc2nccc(-n3ccc4ccccc43)n2)c(OC)cc1N1CC[C@H](N(C)C)C1",
    "pIC50": "8.00 to 9.00"
  },
  {
    "molecular-string": "C=CC(=O)Nc1cc(Nc2nccc(-n3c(=O)n(C(C)C)c4cc(F)ccc43)n2)c(OC)cc1N(C)CCN(C)C",
    "pIC50": "> 9.00"
  },
  {
    "molecular-string": "C=CC(=O)Nc1cc(Nc2nccc(-n3c(=O)n(C)c4ccccc43)n2)c(C(C)C)cc1N(C)CCN(C)C",
    "pIC50": "8.00 to 9.00"
  }
]
